# tested on: Solute carrier organic anion transporter family member 1B1 (Homo sapiens)
# Sequence (Q9Y6L6 whole entry): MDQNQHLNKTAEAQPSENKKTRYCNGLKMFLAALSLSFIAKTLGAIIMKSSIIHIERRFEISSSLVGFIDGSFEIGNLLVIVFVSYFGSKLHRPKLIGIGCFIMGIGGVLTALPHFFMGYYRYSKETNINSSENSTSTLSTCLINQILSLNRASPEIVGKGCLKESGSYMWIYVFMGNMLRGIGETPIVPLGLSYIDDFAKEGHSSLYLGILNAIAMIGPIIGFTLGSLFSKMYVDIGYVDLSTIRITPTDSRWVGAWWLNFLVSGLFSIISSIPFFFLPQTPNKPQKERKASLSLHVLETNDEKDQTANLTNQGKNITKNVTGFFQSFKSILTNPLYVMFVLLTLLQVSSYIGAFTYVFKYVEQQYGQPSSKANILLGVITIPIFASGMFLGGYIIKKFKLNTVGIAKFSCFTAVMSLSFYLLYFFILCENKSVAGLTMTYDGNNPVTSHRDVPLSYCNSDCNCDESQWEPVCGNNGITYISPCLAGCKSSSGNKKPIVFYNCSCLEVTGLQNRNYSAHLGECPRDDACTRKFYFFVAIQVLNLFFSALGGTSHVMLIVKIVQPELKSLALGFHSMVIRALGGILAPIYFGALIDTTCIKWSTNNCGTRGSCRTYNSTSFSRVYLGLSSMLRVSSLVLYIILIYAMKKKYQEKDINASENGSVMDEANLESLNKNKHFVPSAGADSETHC
# assay explanation: Inhibition of OATP1B1 (unknown origin) expressed in HEK293 cells using estradiol-17beta-glucuronide substrate
# Assay type: ADME, cell-based
reported metric: IC50 (µM)
One number for each entry, in µM.

[[record]]
query_smiles = "CO[C@H]1/C=C/O[C@@]2(C)Oc3c(C)c(O)c4c(O)c(c(/C=N/N5CCN(C)CC5)c(O)c4c3C2=O)NC(=O)/C(C)=C\\C=C\\[C@H](C)[C@H](O)[C@@H](C)[C@@H](O)[C@@H](C)[C@H](OC(C)=O)[C@@H]1C"
tested_on = "Solute carrier organic anion transporter family member 1B1 (Homo sapiens)"
quantity_unit = "µM"
val = 0.3


Moving on to the next molecule.
Incoming: Which IC50 reading was recorded for the molecule "Cc1ccc(C)c(OCCCC(C)(C)C(=O)O)c1" ?
Outgoing: 11

Every entry's value here was drawn from ChEMBL document CHEMBL3525911.
